For each record, write down the corresponding IC50.
molecular target: MALT1-GS-Ub (6-His-hMALT-1 residues 339-715 fused to ubiquitin) (Homo sapiens); assay: biochemical;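 further: in vitro MALT1 protease assay: enzyme preincubated with compound 30 min at room temperature, then cleavage of fluorogenic Ac-LVSR-AMC substrate (100 µM) followed by fluorescence every 15 min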
Sequence (Q9UDY8 with tags, fused parts or gaps limits assumed): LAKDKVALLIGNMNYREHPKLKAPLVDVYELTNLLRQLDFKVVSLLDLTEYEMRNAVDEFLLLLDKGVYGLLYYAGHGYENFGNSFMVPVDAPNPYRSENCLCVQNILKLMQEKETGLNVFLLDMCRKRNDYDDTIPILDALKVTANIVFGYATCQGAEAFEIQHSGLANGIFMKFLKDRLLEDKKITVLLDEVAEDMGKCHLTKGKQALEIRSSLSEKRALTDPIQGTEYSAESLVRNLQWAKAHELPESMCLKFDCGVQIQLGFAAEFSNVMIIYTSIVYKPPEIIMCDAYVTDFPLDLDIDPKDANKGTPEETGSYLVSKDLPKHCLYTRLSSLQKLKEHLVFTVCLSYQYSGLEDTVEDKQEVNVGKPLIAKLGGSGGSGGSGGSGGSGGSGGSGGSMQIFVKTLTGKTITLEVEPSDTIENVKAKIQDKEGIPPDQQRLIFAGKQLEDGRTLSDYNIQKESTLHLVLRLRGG
Value and unit, in that order.

// IC50 value for CN(C(=O)C1CNC1)C(c1ccc(NC2Cc3ccccc3C2(C)C)cn1)C(F)(F)F (single isomer, unassigned) [Example 84] : 320 nM

Reported IC50 of CN(C(=O)N1CCOCC1)[C@@H](c1ccc(N[C@@H]2Cc3ccccc3C2(C)C)cc1)C(F)(F)F (single isomer, unassigned) : 400 nM

IC50 reported for this compound CC(=O)NCC(=O)N(C)[C@@H](c1ccc(NC2Cc3ccccc3C2(C)C)cc1)C(F)(F)F (single isomer, unassigned) [Example 39] : 240 nM

Reported IC50 of CC1(C)c2ccccc2CC1Nc1ccc([C@H](NC(=O)C2CCS(=O)(=O)CC2)C(F)(F)F)cc1 (single isomer, unassigned) [Example 81] : 1440 nM

Just so you know, measured IC50 for CC(=O)N1CC(C)(C(=O)N(C)[C@@H](c2ccc(NC3Cc4ccccc4C3(C)C)cc2)C(F)(F)F)C1 (single isomer, unassigned) [Example 41] came out at 220 nM

The reported IC50 of the compound CN(C(=O)C1CNC1)C(c1ccc(NC2Cc3ccccc3C2(C)C)cn1)C(F)(F)F (single isomer, unassigned) [Example 85] was 610 nM
